# Tested on: Shigella flexneri
# testName: Antibacterial activity against Shigella flexneri
# Format: functional
Listing: MIC of selected compounds

O=Nc1c(C(F)(F)F)n[nH]c1-c1cccs1 :: 500 µg/mL

Field: next compound
Please fill in: MIC reported for Cc1ccc(-c2c(N=O)c(C(F)(F)F)nn2-c2ccc(S(N)(=O)=O)cc2)cc1 = > 250 µg/mL

* * *

Listing: MIC of selected compounds
# Test system: Neisseria gonorrhoeae
# testName: Antibacterial activity against Neisseria gonorrhoeae
# Type: functional
Please state the figure in µg/mL; there is no need to write the unit.

Here's what some known entries look like.
Cn1nc(C(F)(F)F)c(N=O)c1-c1ccccc1 :: 62.5
O=Nc1c(C(F)(F)F)n[nH]c1-c1ccco1 :: 15.6
O/N=C1\C(c2ccccc2)=NN(c2ccccc2)C1(O)C(F)(F)F (stereo unspecified) :: 31.2
O=Nc1c(C(F)(F)F)n[nH]c1-c1cccs1 :: 62.5

Please fill in: MIC reported for Cl.Nc1c(C(F)(F)F)n[nH]c1-c1cccs1 = 62.5

* * *

# Tested on: Klebsiella pneumoniae
# testName: Antibacterial activity against Klebsiella pneumoniae
# Assay type: functional
metric: MIC

Here's what some known entries look like.
Cc1[nH]nc(C(F)(F)F)c1N=O :: 500 µg/mL
Cn1nc(C(F)(F)F)c(N=O)c1-c1cccs1 :: > 500 µg/mL
Cl.Nc1c(C(F)(F)F)n[nH]c1-c1ccccc1 :: > 250 µg/mL
CS(=O)(=O)c1ccc(-n2nc(C(F)(F)F)c(N=O)c2-c2ccccc2)cc1 :: > 250 µg/mL
Cc1ccc(-c2c(N=O)c(C(F)(F)F)nn2-c2ccc(S(N)(=O)=O)cc2)cc1 :: > 250 µg/mL

Field: next molecule
Please fill in: MIC reported for Cl.Nc1c(C(F)(F)F)n[nH]c1-c1cccs1 = > 250 µg/mL

* * *

# System: Proteus vulgaris
# testName: Antibacterial activity against Proteus vulgaris
# Assay type: functional
metric: MIC

Cl.Nc1c(C(F)(F)F)n[nH]c1-c1cccs1 :: > 250 µg/mL
Cc1[nH]nc(C(F)(F)F)c1N=O :: 31.2 µg/mL
Cl.Cn1nc(C(F)(F)F)c(N)c1-c1ccccc1 :: > 250 µg/mL
Cn1nc(C(F)(F)F)c(N=O)c1-c1cccs1 :: > 500 µg/mL
CS(=O)(=O)c1ccc(-n2nc(C(F)(F)F)c(N)c2-c2ccccc2)cc1.Cl :: > 250 µg/mL

Please fill in: MIC reported for CN[C@@H]1[C@H](O)[C@H](NC)[C@H]2O[C@@]3(O)C(=O)C[C@@H](C)O[C@H]3O[C@@H]2[C@H]1O [SPECTINOMYCIN] = 1.25 µg/mL

Please fill in: MIC reported for O=Nc1c(C(F)(F)F)n[nH]c1-c1ccco1 = 62.5 µg/mL

Please fill in: MIC reported for Cn1nc(C(F)(F)F)c(N=O)c1-c1ccco1 = > 500 µg/mL

Please fill in: MIC reported for Cc1ccc(-c2c(N=O)c(C(F)(F)F)nn2-c2ccc(S(N)(=O)=O)cc2)cc1 = > 250 µg/mL

Please fill in: MIC reported for Cc1ccc(-c2c(N)c(C(F)(F)F)nn2-c2ccc(S(N)(=O)=O)cc2)cc1.Cl = > 250 µg/mL

* * *

# Test system: Trichophyton rubrum
# testName: Antifungal activity against Trichophyton rubrum
# Format: functional
Listing: MIC of selected compounds
Please state the figure in mg/L; there is no need to write the unit.

Here's what some known entries look like.
OC(Cn1cncn1)(Cn1cncn1)c1ccc(F)cc1F [FLUCONAZOLE] :: 6.25
O=Nc1c(C(F)(F)F)n[nH]c1-c1cccs1 :: 12.5

Field: next compound
Please fill in: MIC reported for Cc1ccc(-c2c(N)c(C(F)(F)F)nn2-c2ccc(S(N)(=O)=O)cc2)cc1.Cl = 200

* * *

# Test system: Klebsiella pneumoniae
# testName: Antibacterial activity against Klebsiella pneumoniae
# Type: functional
metric: MIC

Here's what some known entries look like.
Cl.Cn1nc(C(F)(F)F)c(N)c1-c1ccccc1 :: > 250 µg/mL
Cn1nc(C(F)(F)F)c(N=O)c1-c1ccco1 :: > 500 µg/mL
Cl.Cn1nc(C(F)(F)F)c(N)c1-c1cccs1 :: > 250 µg/mL
CN[C@@H]1[C@H](O)[C@H](NC)[C@H]2O[C@@]3(O)C(=O)C[C@@H](C)O[C@H]3O[C@@H]2[C@H]1O :: 15.6 µg/mL
Cc1ccc(-c2c(N)c(C(F)(F)F)nn2-c2ccc(S(N)(=O)=O)cc2)cc1.Cl :: > 250 µg/mL
O=Nc1c(C(F)(F)F)n[nH]c1-c1cccs1 :: 500 µg/mL

Please fill in: MIC reported for O=Nc1c(C(F)(F)F)n[nH]c1-c1ccco1 = 125 µg/mL

Please fill in: MIC reported for O=Nc1c(C(F)(F)F)n[nH]c1-c1ccccc1 = 62.5 µg/mL

* * *

# Test system: Staphylococcus aureus
# testName: Antibacterial activity against Staphylococcus aureus
# Type: functional
Listing: MIC of selected compounds
Please state the figure in µg/mL; there is no need to write the unit.

Please fill in: MIC reported for O=Nc1c(C(F)(F)F)n[nH]c1-c1cccs1 = 15.6

* * *

Listing: MIC of selected compounds
# System: Neisseria gonorrhoeae
# testName: Antibacterial activity against Neisseria gonorrhoeae
# Type: functional
Please state the figure in µg/mL; there is no need to write the unit.

Cc1[nH]nc(C(F)(F)F)c1N=O :: 15.6

Please fill in: MIC reported for CS(=O)(=O)c1ccc(-n2nc(C(F)(F)F)c(N=O)c2-c2ccccc2)cc1 = 62.5

Please fill in: MIC reported for Cl.Nc1c(C(F)(F)F)n[nH]c1-c1ccccc1 = 62.5

Please fill in: MIC reported for O=Nc1c(C(F)(F)F)n[nH]c1-c1ccccc1 = 62.5

Please fill in: MIC reported for Cn1nc(C(F)(F)F)c(N=O)c1-c1ccco1 = 125

Please fill in: MIC reported for CN[C@@H]1[C@H](O)[C@H](NC)[C@H]2O[C@@]3(O)C(=O)C[C@@H](C)O[C@H]3O[C@@H]2[C@H]1O = 15.6

* * *

Listing: log10 IC50 of selected compounds
# Tested on: HeLa
# testName: Cytotoxicity against human HeLa cells
# Format: functional, cell-based
# runConditions: Homo sapiens, HeLa; read-out: IC50
Use the decimal logarithm of IC50 (µM).

Here's what some known entries look like.
Cl.Cn1nc(C(F)(F)F)c(N)c1-c1cccs1 :: 1.69
COc1cccc2c1C(=O)c1c(O)c3c(c(O)c1C2=O)C[C@@](O)(C(=O)CO)C[C@@H]3O[C@H]1C[C@H](N)[C@H](O)[C@H](C)O1 [DOXORUBICIN] :: 0.63

Please fill in: log10 IC50 reported for Cn1nc(C(F)(F)F)c(N=O)c1-c1ccccc1 = 1.81

Please fill in: log10 IC50 reported for Cc1[nH]nc(C(F)(F)F)c1N=O = 1.79

Please fill in: log10 IC50 reported for CC[C@@]1(O)C(=O)OCc2c1cc1n(c2=O)Cc2cc3ccccc3nc2-1 [CAMPTOTHECIN] = 0.22

Please fill in: log10 IC50 reported for Cl.Cn1nc(C(F)(F)F)c(N)c1-c1ccccc1 = -1.13

Please fill in: log10 IC50 reported for O=Nc1c(C(F)(F)F)n[nH]c1-c1ccccc1 = 0.27

Please fill in: log10 IC50 reported for Cc1ccc(C2=NN(c3ccc(S(N)(=O)=O)cc3)C(O)(C(F)(F)F)/C2=N/O)cc1 (centres undefined) = 0.86

Please fill in: log10 IC50 reported for Cl.Nc1c(C(F)(F)F)n[nH]c1-c1ccccc1 = 0.27

* * *

# System: Neisseria gonorrhoeae
# testName: Antibacterial activity against Neisseria gonorrhoeae
# Assay type: functional
metric: MIC (µg/mL)
Please state the figure in µg/mL; there is no need to write the unit.

Here's what some known entries look like.
CS(=O)(=O)c1ccc(-n2nc(C(F)(F)F)c(N)c2-c2ccccc2)cc1.Cl :: 250
Cc1ccc(-c2c(N)c(C(F)(F)F)nn2-c2ccc(S(N)(=O)=O)cc2)cc1.Cl :: 250
Cn1nc(C(F)(F)F)c(N=O)c1-c1cccs1 :: 500

Field: next compound
The reported Neisseria gonorrhoeae MIC of Cc1ccc(-c2c(N=O)c(C(F)(F)F)nn2-c2ccc(S(N)(=O)=O)cc2)cc1 is 31.2

* * *

# System: Serratia marcescens
# testName: Antibacterial activity against Serratia marcescens
# Type: functional
Listing: MIC of selected compounds

CN[C@@H]1[C@H](O)[C@H](NC)[C@H]2O[C@@]3(O)C(=O)C[C@@H](C)O[C@H]3O[C@@H]2[C@H]1O :: 15.6 µg/mL
Cn1nc(C(F)(F)F)c(N=O)c1-c1cccs1 :: > 500 µg/mL
O=Nc1c(C(F)(F)F)n[nH]c1-c1cccs1 :: 250 µg/mL
Cl.Cn1nc(C(F)(F)F)c(N)c1-c1cccs1 :: > 250 µg/mL
Cc1ccc(-c2c(N)c(C(F)(F)F)nn2-c2ccc(S(N)(=O)=O)cc2)cc1.Cl :: > 250 µg/mL

Field: next compound
Please fill in: MIC reported for CS(=O)(=O)c1ccc(-n2nc(C(F)(F)F)c(N)c2-c2ccccc2)cc1.Cl = > 250 µg/mL

Sourced from ChEMBL document CHEMBL4765448
